From: ChEMBL document CHEMBL1135860

- targetOrTestSystem: 5-hydroxytryptamine receptor 7 (Homo sapiens)
- assayInfo: Binding affinity towards human 5-hydroxytryptamine 7 receptor on HEK293 cells using radioligand [3H]LSD
- Assay type: cell-based
- measurementParameters: hek293
propertyLabel: Ki (nM)
Answers are plain numbers, in nM.

[ask] Provide the documented Ki with 5-hydroxytryptamine receptor 7 (Homo sapiens) as the system for `Cc1cccc(S(=O)(=O)N(C)[C@H](C)CCN2CCC(C)CC2)c1`
[reply] 32

###

- targetOrTestSystem: 5-hydroxytryptamine receptor 7 (Homo sapiens)
- assayInfo: Inhibition (at 1 uM) of radioligand [3H]LSD binding to human 5-hydroxytryptamine 7 receptor on HEK293 cells
- Assay type: cell-based
Record Condition met whenever inhibition is at 60% or higher; record Condition not met when lower.

[ask] Test whether the compound `CN1CCCN(CCn2ccc3cccc(Br)c32)CC1` records inhibition of 60% or higher.
[reply] Condition not met

[ask] Now the same for `COc1ccc2ccn(CCN3CCCN(C)CC3)c2c1`
[reply] Condition not met

###

- targetOrTestSystem: 5-hydroxytryptamine receptor 7 (Homo sapiens)
- assayInfo: Binding affinity towards human 5-hydroxytryptamine 7 receptor on HEK293 cells using radioligand [3H]LSD
- Format: cell-based
Would you kindly list Ki for each of these molecules?
Numbers only, in nM.

[
  {
    "testSmiles": "C=C(C)c1ccc2ccn(CCN3CCCN(C)CC3)c2c1",
    "targetOrTestSystem": "5-hydroxytryptamine receptor 7 (Homo sapiens)",
    "Ki (nM)": 70
  },
  {
    "testSmiles": "CN1CCCN(CCn2ccc3ccc([N+](=O)[O-])cc32)CC1",
    "targetOrTestSystem": "5-hydroxytryptamine receptor 7 (Homo sapiens)",
    "Ki (nM)": 139
  },
  {
    "testSmiles": "Cc1ccc2ccn(CCN3CCCN(C)CC3)c2c1",
    "targetOrTestSystem": "5-hydroxytryptamine receptor 7 (Homo sapiens)",
    "Ki (nM)": 125
  }
]

# evaluate next
[ask] What value of Ki has been recorded for this entry: `CN1CCCN(CCn2ccc3ccc(-c4ccsc4)cc32)CC1`
[reply] 109

###

Answer each item with its documented pKi.
- targetOrTestSystem: 5-hydroxytryptamine receptor 7 (Homo sapiens, UniProt P34969)
- Sequence (P34969 whole entry): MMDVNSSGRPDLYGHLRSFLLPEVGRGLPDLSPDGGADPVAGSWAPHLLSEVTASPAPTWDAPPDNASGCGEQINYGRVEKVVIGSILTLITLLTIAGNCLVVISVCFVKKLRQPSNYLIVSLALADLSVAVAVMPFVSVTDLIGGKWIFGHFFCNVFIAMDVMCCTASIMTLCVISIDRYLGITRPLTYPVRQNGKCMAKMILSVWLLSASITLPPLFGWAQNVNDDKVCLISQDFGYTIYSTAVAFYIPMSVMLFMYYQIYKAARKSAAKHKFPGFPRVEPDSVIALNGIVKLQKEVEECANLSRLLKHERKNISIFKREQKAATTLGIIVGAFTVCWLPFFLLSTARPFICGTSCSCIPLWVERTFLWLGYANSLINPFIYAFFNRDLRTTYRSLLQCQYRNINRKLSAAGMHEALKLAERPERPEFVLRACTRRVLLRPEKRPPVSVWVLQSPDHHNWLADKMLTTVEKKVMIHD
- assayInfo: Binding affinity towards human 5-hydroxytryptamine 7 receptor on HEK293 cells using radioligand [3H]LSD
- Format: cell-based
Numbers only, as −log10 of the molar value.

[
  {
    "compound": "Clc1ccc2ccn(CCN3CCCN4CCCCC4C3)c2c1 (configuration not stated)",
    "pKi": 8.00
  },
  {
    "compound": "CN1CCCN(CCn2ccc3cc(Br)ccc32)CC1",
    "pKi": 7.06
  },
  {
    "compound": "Cc1cccc(C#N)c1-c1cccc2c1-c1cccc3c1[C@@H](C2)N(C)CC3",
    "pKi": 9.00
  },
  {
    "compound": "C=Cc1ccc2ccn(CCN3CCCN(C)CC3)c2c1",
    "pKi": 6.96
  }
]

Hey, can you go through the list below and give me pKi for every item?
1. CC(C)(C)CN1CCCN(CCn2ccc3ccc(Br)cc32)CC1
2. CC(C)N1CCCN(CCn2ccc3ccc(Br)cc32)CC1
3. C#Cc1ccc2ccn(CCN3CCCN(C)CC3)c2c1
4. Brc1ccc2ccn(CCN3CCCN(CC4CC4)CC3)c2c1
5. CC(C)CN1CCCN(CCn2ccc3ccc(Br)cc32)CC1
6. CN1CCCN(CCn2ccc3ccc(Br)cc32)CC1
7. Brc1ccc2c(ccn2CCN2CCN3CCCCC3C2)c1 (configuration not stated)

[reply]
6.79
7.85
6.85
8.05
7.43
7.51
6.80

[ask] Request the reported pKi associated with `Brc1ccc2ccn(CCN3CCCN(C4CCCC4)CC3)c2c1`
[reply] 8.00
